System: HCC-2998 colon
Assay: NCI-60 one-dose screen, 48 h (100 = growth as untreated, 0 = no growth, -100 = all killed)
Conditions: 10 µM unless noted
Method: Growth inhibition of the HCC-2998 human tumor cell line is measured as a screen for anti-cancer activity. Cells are grown in 96 well plates and exposed to the test compound for 48 hours. Compounds are tested at a single concentration, which is 10^-5 M for most compounds. The reported endpoint is percent growth (GI% or GIPRCNT), where numbers from 0 - 100% represent growth inhibition, and numbers from -100% - 0 represent cell death. For example, a value of 40 represents 60% growth inhibition. […]
This is part of a sample that, as a whole, favours compounds with a hit. Of some 83,000 tested, about 20% had one in any assay.
Documented growth across a set of molecules
A number alone suffices; assume %.

Worked set:
test.smiles: COc1ccc2nc(-c3ccc(OC)c(OC)c3)cc(-c3nnc(SCC(=O)Nc4ccc(/C(C)=N\O)cc4)n3-c3ccccc3)c2c1
growth / %: 101
//
test.smiles: CN1CCN(S(=O)(=O)O[C@@H]2C(=O)N(c3cc4c5ccccc5ccc4c4ccccc34)[C@H]2c2ccc(F)cn2)CC1
growth / %: 90.4
//
test.smiles: CCCNc1nc(C)[nH]c(=O)c1S
growth / %: 112

Now look at this one.
In: What value of growth has been reported for the following molecule? COc1ccc(-n2cc(-c3ccc(Cl)c(Cl)c3)[nH]c2=O)cc1OC
Out: 96

----------
test system: NCI-H460 lung; assay: NCI-60 one-dose screen, 48 h (100 = growth as untreated, 0 = no growth, -100 = all killed); conditions: 10 µM unless noted
The panel holds about 83,000 compounds, 20% with a hit somewhere; the sample as a whole holds those more often.
quantity.kind: growth (%)
A number alone suffices; assume %.

Worked set:
molecule: C=C(C)[C@@H]1CC[C@]2(C(=O)N=C=S)CC[C@]3(C)[C@H](CC[C@@H]4[C@@]5(C)CCC(=O)C(C)(C)[C@@H]5CC[C@]43C)[C@@H]12
growth / %: 6.85
--
molecule: CC(C)NS(=O)(=O)c1cccc(-c2ccc3c4c(n(CCCN(C)C)c(=O)c3c2)-c2ccccc2C4=O)c1
growth / %: 28.5

Now look at this one.
In: Param readout= growth; system= NCI-H460 lung; entry= COC(=O)c1cc2c3c(cc(O)c2[nH]1)N(C(=O)C1Cc2cc(OC)c(OC)c(OC)c2N1)CC3CCl (configuration not stated) ; returns value.
Out: -17.9

----------
system: MALME-3M melanoma; assay: NCI-60 one-dose screen, 48 h; conditions: 10 µM unless noted
About 83,000 compounds went through this panel and 20% of them were active in at least one assay; those are over-represented in the sample as a whole. Activity calls are given as the source filed them. The calls were made as follows: active = growth percent below 10; inactive = the rest.
Tick one outcome: class 1 (active), class 0 (inactive)

molecule: CC(=O)ON1CCCC(P(=O)(OCOC(=O)C(C)(C)C)OCOC(=O)C(C)(C)C)C1=O (centres undefined)
measured.on: MALME-3M melanoma
discrete.label: class 1

In: Entry CCC[S@@](=O)c1ccc2nc(NC(=O)OC)[nH]c2c1 : call = ?
Out: class 0

In: Entry CCOc1ccc(C2N(c3cc(OC)c(OC)c(OC)c3)C(=O)C2(F)F)cc1 (centres undefined) : call = ?
Out: class 0

In: Entry CCO/C=N/S(=O)(=O)c1cc2c(cc1Cl)NC=NS2(=O)=O : call = ?
Out: class 0

In: Entry NC(N)=NC(N)=Nc1cc2ccccc2c2ccccc12 : call = ?
Out: class 1

In: Entry C=C(C)[C@@H]1CC[C@]2(C(=O)OCCOCCOCC[P+](c3ccccc3)(c3ccccc3)c3ccccc3)CC[C@]3(C)[C@H](CC[C@@H]4[C@@]5(C)CC[C@H](C)C(C)(C)[C@@H]5CC[C@]43C)[C@@H]12 : call = ?
Out: class 1

----------
Documented growth across a set of molecules
test system: T-47D breast; assay: NCI-60 one-dose screen, 48 h (100 = growth as untreated, 0 = no growth, -100 = all killed); conditions: 10 µM unless noted
About 83,000 compounds went through this panel and 20% of them were active in at least one assay; those are over-represented in the sample as a whole.
A number alone suffices; assume %.

Worked set:
molecule: C=C(C)[C@@H]1CC[C@]2(C(=O)n3ccnc3)CC[C@]3(C)[C@H](CC[C@@H]4[C@@]5(C)CCCNC(C)(C)[C@@H]5CC[C@]43C)[C@@H]12
growth / %: 11.4
--
molecule: Nc1c(C(=O)Nc2ccccn2)sc2nc3c(cc12)CCCCC3
growth / %: 36.4
--
molecule: CCCCn1c(=O)c(/C=C/C(=O)/C=C/c2ccc(O)c(OC)c2)cc2ccc(Cl)cc21
growth / %: 25.3
--
molecule: COc1ccc(C(=O)c2cc(OC)c(C)c(OC)c2)cc1OC(=O)CCl
growth / %: 43.8
--
molecule: CCOC(=O)c1c(C)nc2c(c1N)/C(=C/c1cccs1)C(=O)N2Cc1ccccc1
growth / %: 43
--
molecule: COc1ccc(/C(=N\O)c2cc(C)c(OC)c(C)c2)cc1O
growth / %: 84.9
--
molecule: Nc1cc(N)c(S(=O)(=O)O)cc1N=Nc1cc([N+](=O)[O-])ccc1O
growth / %: 97.2
--
molecule: N#Cc1ccc(N2Cc3cc(Cl)ccc3OC3=C2C(=O)N(Cc2ccccc2)C3=O)cc1
growth / %: -60.1

In: What value of growth has been reported for the following molecule? CCOC(=O)C1=C(C)n2nc(CC#N)c(C#N)c2NC1c1ccc(Cl)cc1 (centres undefined)
Out: 110

----------
test system: UO-31 renal; assay: NCI-60 one-dose screen, 48 h (100 = growth as untreated, 0 = no growth, -100 = all killed); conditions: 10 µM unless noted
About 83,000 compounds went through this panel and 20% of them were active in at least one assay; those are over-represented in the sample as a whole.
The label fulfilled is reserved for growth strictly under 50%; not fulfilled covers values equal to or above it.

In: In the record for COC(=O)/C=C/c1cc(OC(C)=O)c2c(c1)C(C(=O)OC)C(c1ccc(OC(C)=O)c(OC(C)=O)c1)O2 (centres undefined) , is growth less than 50%?
Out: fulfilled

In: In the record for CCOC(=O)c1sc(/N=C2\NC(=O)/C(=C/c3ccc(N4CCN(C)CC4)cc3)S2)nc1C , is growth less than 50%?
Out: not fulfilled

In: In the record for CC(=O)Oc1ccc(O)cc1 , is growth less than 50%?
Out: not fulfilled

In: In the record for COCCc1n(Cc2ccc3ccccc3c2)c2ccccc2[n+]1Cc1ccc2ccccc2c1 , is growth less than 50%?
Out: fulfilled

In: In the record for Cn1c2ccccc2c2c(OC(=O)c3ccccc3)c3c(nc21)-c1ccccc1C3 , is growth less than 50%?
Out: not fulfilled

In: In the record for O=C(NC[C@H](O)CN1CCc2ccccc2C1)c1cc(NC2COC2)ncn1 , is growth less than 50%?
Out: not fulfilled

In: In the record for O=C1C(=O)c2c(nc3ccc(C(F)(F)F)cn23)-c2ccccc21 , is growth less than 50%?
Out: fulfilled

----------
Documented growth across a set of compounds
tested on: MDA-MB-231 breast; assay: NCI-60 one-dose screen, 48 h (100 = growth as untreated, 0 = no growth, -100 = all killed); conditions: 10 µM unless noted
Compounds without any hit were thinned out: in the full panel of roughly 83,000, 20% have a hit.
A number alone suffices; assume %.

Worked set:
compound: O=C1NC(c2ccc(F)cc2)N=C2C(c3ccccc3)=NOC12 (stereo unspecified)
readout.value: 115
//
compound: CN(C)C(CNc1oc(-c2cccc3ccccc23)nc1C#N)c1ccco1 (stereo unspecified)
readout.value: 107
//
compound: O=C1C(=O)c2c(nc3ccc(C(F)(F)F)cn23)-c2ccccc21
readout.value: -22.7
//
compound: CCCCn1c(=O)c(/C=C/C(=O)/C=C/c2cc3ccccc3n(CCCC)c2=O)cc2ccccc21
readout.value: -18.8
//
compound: CCOCCc1c(O)nc(SC)[nH]c1=O
readout.value: 111

Now look at this one.
In: Param readout= growth; system= MDA-MB-231 breast; entry= COc1ccc(Cc2nc(C#N)c(N3CCN(c4ccc(F)cc4)CC3)o2)cc1 ; returns value.
Out: 98.4

----------
test system: MDA-MB-231 breast; experiment: NCI-60 one-dose screen, 48 h (100 = growth as untreated, 0 = no growth, -100 = all killed); details: 10 µM unless noted
Compounds without any hit were thinned out: in the full panel of roughly 83,000, 20% have a hit.
quantity.kind: growth (%)
A number alone suffices; assume %.

test.smiles: O=C(O)CCNC1CCCCC1
units.symbol: %
growth: 100
//
test.smiles: C=C(C)[C@@H]1CC[C@]2(C(=O)OCCCC[P+](c3ccccc3)(c3ccccc3)c3ccccc3)CC[C@]3(C)[C@H](CC[C@@H]4[C@@]5(C)CC[C@H](OC(=O)C(Cl)Cl)C(C)(C)[C@@H]5CC[C@]43C)[C@@H]12
units.symbol: %
growth: -49.8
//
test.smiles: CCOC(=O)C1CCN(S(=O)(=O)/N=C2/NC(=O)NC2=C(Cl)Cl)CC1
units.symbol: %
growth: 9.62
//
test.smiles: O=c1[nH]nc(-c2ccc(Br)cc2)c2sc(NC(=S)Nc3ccc(Cl)cc3)nc12
units.symbol: %
growth: 92.4
//
test.smiles: CCOC(=O)/C(=C/c1c(-c2ccccc2)[nH]c2ccccc12)C(=O)c1ccc(Cl)cc1
units.symbol: %
growth: 63
//
test.smiles: CC(=O)c1ccc(NC(=O)CSc2nnc(-c3cc(-c4ccc(C)cc4)nc4ccccc34)o2)cc1
units.symbol: %
growth: -2.97

In: What value of growth has been reported for the following molecule? CN(C)CCCn1c2c(c3cc(-c4cccc(S(N)(=O)=O)c4)ccc3c1=O)C(=O)c1ccccc1-2
Out: 94.4

In: What value of growth has been reported for the following molecule? [2H]c1cc2c(c([2H])c1F)/C(=C/c1[nH]c(C)c(C(=O)NCCN(CC)CC)c1C)C(=O)N2
Out: 67.7

In: What value of growth has been reported for the following molecule? N#CCNc1ccc(C(=O)O)cc1
Out: 104
